B1: CPOX (parent)
chain: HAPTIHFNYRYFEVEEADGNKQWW

Variants of: B1
Protocol Details: protein stability index of a GFP-peptide fusion (GPS, HEK-293T) (PSI 1-6); higher = more stable;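 also: lentivirally expressed fusions sorted by FACS into six bins by GFP to DsRed ratio, PSI derived from sequencing read proportions per bin multiplied by bin number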
Applied Conditions: c terminus: a fixed tail appended
Listed here: items and their measured protein stability index.

These recorded examples may help you get a feel for the data.
{"columns": ["Mutation Id", "protein stability index"],
 "data": [
  ["A17Y", 1.77],
  ["Y9E", 3.5],
  ["V14R", 2.29],
  ["W23T", 2.63],
  ["D18P", 1.71]
]}

Exam item: What does the data say about its protein stability index? Entry: `H6D`
Marked response: 2.92

Exam item: protein stability index for `W24V` ?
Marked response: 3.1

Exam item: Which protein stability index reading was recorded for the variant `Y11S` ?
Marked response: 2.92

Exam item: Please look up its protein stability index: `H1R`
Marked response: 3.24

Exam item: Fill in the blank: the reported protein stability index of `Y9M` is ____.
Marked response: 2.6

Exam item: Could you tell me which protein stability index is on file for `F7L` ?
Marked response: 2.86

Exam item: # input variant: `T4F` ; wanted: its protein stability index
Marked response: 2.12

Exam item: Look up protein stability index: `A17S`
Marked response: 2.23
